biological target: WT KRAS (Homo sapiens); assay: KRAS WT Probe Displacement Assay (TR-FRET, GDP-loaded); format: binding; details: KRAS WT, read-out: KRAS^WT Probe Displacement Assay IC50
Sequence (P01116 1-188 isoform P01116-2): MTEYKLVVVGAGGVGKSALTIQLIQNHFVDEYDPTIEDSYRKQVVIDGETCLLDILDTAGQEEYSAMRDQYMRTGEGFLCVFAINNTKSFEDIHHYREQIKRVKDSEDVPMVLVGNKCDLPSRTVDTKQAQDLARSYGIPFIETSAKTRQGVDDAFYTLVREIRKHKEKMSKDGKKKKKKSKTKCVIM
pIC50: −log10 of the molar value.
// values below are reported pIC50
readout-kind: pIC50

| compound | measured-on | readout-kind | result |
| --- | --- | --- | --- |
| Cc1cc(N)cc(-c2nc3c4c(nc(OCC5(CN6C[C@@H]7[C@@H](CF)[C@@H]7C6)CC5)nc4c2F)N2C[C@H]4CC[C@H](N4)[C@H]2CCO3)c1C(F)(F)F [Example 170] | WT KRAS (Homo sapiens) | pIC50 | 6.00 to 8.52 |
| Cc1cc(N)cc(-c2nc3c4c(nc(OCC5(CN6CCC(F)(F)CC6)CC5)nc4c2F)N2C[C@H]4CC[C@H](N4)[C@H]2CCO3)c1C(F)(F)F [Example 70] | WT KRAS (Homo sapiens) | pIC50 | 8.52 to 9.52 |
| CO[C@@H]1CN2C[C@H](F)C[C@]2(COc2nc3c4c(nc(-c5cc(N)cc(C)c5C(F)(F)F)c(F)c4n2)OCC[C@@H]2[C@@H]4CC[C@H](CN32)N4)C1 [Example 216] | WT KRAS (Homo sapiens) | pIC50 | 6.00 to 8.52 |
